molecular target: Syk kinase (Homo sapiens, UniProt P43405); construct: purchased; experiment: Syk kinase inhibition, Caliper LabChip off-chip mobility-shift kinase assay; format: biochemical; details: read-out: Syk Enzyme IC50
pIC50: −log10 of the molar value.
metric-name: pIC50

Some entries whose results are on file:
Exercise: Param readout= pIC50; system= Syk kinase (Homo sapiens, UniProt P43405); entry= COc1cncc(-c2cc3cc[nH]c(=O)c3c(Nc3ccc(C4CCN(C(C)C(=O)NCCO)CC4)c(C)c3)n2)n1 (stereo not shown) ; returns value.
Solution: 7.04

Exercise: Same read-out for CCNC(=O)C(C)N1CCC(c2ccc(Nc3nc(-c4cncc(OC)n4)cc4cc[nH]c(=O)c34)cc2C)CC1 (stereo not shown) ?
Solution: 7.64

Exercise: Same read-out for Cc1ccnc(Nc2cc3ccn(CCN4CCOCC4)c(=O)c3c(NC(C)C)n2)c1 ?
Solution: 6.42

Exercise: Same read-out for Cc1cc(Nc2nc(-c3cnc(N)c(C)c3)cc3cc[nH]c(=O)c23)ccc1C1CCN(CCC#N)CC1 ?
Solution: 7.55

Exercise: Same read-out for CCC(C)Nc1nc(Nc2ccccn2)cc2cc[nH]c(=O)c12 (stereo not shown) ?
Solution: 6.12

Exercise: Same read-out for COc1cncc(-c2cc3c(F)c[nH]c(=O)c3c(Nc3ccc(N4CCOCC4)cc3)n2)n1 ?
Solution: 6.21

P = Cc1cc(Nc2nc(-c3cnn(CC(C)C)c3)cc3cc[nH]c(=O)c23)ccc1C1CCN(C2CC2)CC1
Q = COCCN1CCN(c2n[nH]c3cc(Nc4nc(-c5cnc(OC)nc5)cc5cc[nH]c(=O)c45)ccc23)CC1
Exercise: Of P versus Q , which is the one with smaller reported pIC50? In your reply, give the label of the chosen option.
Solution: P

I = C[C@@H](CO)Nc1nc(Nc2ccccn2)cc2cc[nH]c(=O)c12
II = O=c1[nH]ccc2cc(Nc3ccccn3)nc(N[C@@H]3CCC[C@H]3O)c12 (racemic)
III = COc1ccc(Nc2nc(Nc3cnccn3)cc3ccn(C)c(=O)c23)cc1
IV = Cc1ccnc(Nc2cc3ccn(C)c(=O)c3c(Nc3ccc(C4CCNCC4)cc3)n2)c1
V = COc1cncc(-c2cc3cc[nH]c(=O)c3c(Nc3ccc(C4=CCNCC4)c(C)c3)n2)n1
Exercise: Exam item: list the entries in increasing order of pIC50. Please list the labels according to the requested order.
Solution: II, III, I, V, IV

I = CCn1ccc2cc(Nc3cnccn3)nc(N[C@H]3CCCC[C@H]3O)c2c1=O (racemic)
II = COc1cncc(-c2cc3cc[nH]c(=O)c3c(Nc3ccc(C4CCN(CCC(=O)O)CC4)c(C)c3)n2)n1
Exercise: Of I versus II , which is the one with smaller reported pIC50? In your reply, give the label of the chosen option.
Solution: I

A = Cc1ccnc(Nc2cc3cc[nH]c(=O)c3c(NC3CCOCC3)n2)c1
B = Cc1ccc(-c2cc3cc[nH]c(=O)c3c(Nc3ccc(C4CCN(C5CC5)CC4)c(C)c3)n2)cn1
Exercise: Hi team, can someone confirm which has the larger pIC50: A or B ? Thanks. In your reply, give the label of the chosen option.
Solution: B
